Tgt: Cytochrome c (Homo sapiens)
Test: Inhibition of cytochrome c (unknown origin) assessed as reduction reduction of cyt c from its ferric state to ferrous state at 10 uM incubated for 20 mins in presence of cardiolipin by UV-vis Spectrophotometric assay relative to control
Property label: inhibition

{"columns": ["Compound", "Measured value"],
 "data": [
  ["O=C1C[C@@H](c2ccc(O)cc2)Oc2cc(O)cc(O)c21 [NARINGENIN]", "7.3%"],
  ["COc1ccc(-c2coc3cc(O)cc(O)c3c2=O)cc1 [BIOCHANIN]", "23%"],
  ["Oc1cc(O)c2c(c1)O[C@H](c1ccc(O)c(O)c1)[C@@H](O)C2 [CIANIDANOL]", "61%"],
  ["O=C1c2c(O)cc(O)cc2O[C@H](c2ccc(O)c(O)c2)[C@H]1O [(+)-TAXIFOLIN]", "36%"]
]}

---

Tgt: UniProt:P99999
Sequence (P99999 whole entry): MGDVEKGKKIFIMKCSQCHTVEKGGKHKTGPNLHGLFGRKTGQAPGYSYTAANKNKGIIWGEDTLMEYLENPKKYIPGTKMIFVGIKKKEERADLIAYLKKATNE
Test: Inhibition of cytochrome c (unknown origin) assessed as reduction in cyt c-CL complex formation at 10 uM incubated for 15 mins in presence of cardiolipin by Trp-59 fluorescence assay relative to control

{"columns": ["Compound", "Unit spec", "inhibition"],
 "data": [
  ["COc1ccc([C@@H]2CC(=O)c3c(O)cc(O)cc3O2)cc1O", "%", 71],
  ["O=C1C[C@@H](c2ccccc2)Oc2ccccc21", "%", 67],
  ["O=c1c(-c2ccc(O)cc2)coc2cc(O)cc(O)c12", "%", 50],
  ["O=c1cc(-c2ccc(O)c(O)c2)oc2cc(O)cc(O)c12", "%", 84],
  ["O=C(O[C@@H]1Cc2c(O)cc(O)cc2O[C@@H]1c1cc(O)c(O)c(O)c1)c1cc(O)c(O)c(O)c1 [EPIGALOCATECHIN GALLATE]", "%", 63],
  ["O=c1c(O)c(-c2ccc(O)c(O)c2)oc2cc(O)ccc12", "%", 85],
  ["O=c1cc(-c2ccccc2)oc2cc(O)c(O)c(O)c12", "%", 91],
  ["O=C1C[C@@H](c2ccc(O)cc2)Oc2cc(O)cc(O)c21", "%", 60],
  ["O=c1c(O)c(-c2cc(O)c(O)c(O)c2)oc2cc(O)cc(O)c12", "%", 91]
]}
